# Tested on: Serum Triglycerides and Cholesterol
# Assay protocol: Triton-induced hyperlipidemia test (Table 1)
# Format: in vivo, male Sprague-Dawley rats
# Measurement parameters: Test Group IV; 140 mg/kg p.o.; vs control
Exercise: state measured % Change Triglycerides for each of the compounds provided.

Solved entries:
{"Compound": "CCCCCCCC/C=C\\CCCCCCCC(=O)NC(C)Cc1cccc(C(F)(F)F)c1 (stereo not shown) [Ex.2]", "% Change Triglycerides": "-73%"}
{"Compound": "CCOC(=O)C(C)(C)Oc1ccc(Cl)cc1 [Clofibrate, ethyl p-chlorophenoxyisobutyrate]", "% Change Triglycerides": "-34%"}
{"Compound": "CCCCCCCC/C=C/CCCCCCCC(=O)NC(C)Cc1cccc(C(F)(F)F)c1 (stereo not shown) [Ex.3]", "% Change Triglycerides": "-58%"}

Now look at this one.
-- ask Read the entry CCCCCCCCCCCCCCCCCC(=O)NC(C)Cc1cccc(C(F)(F)F)c1 (stereo not shown) [Ex.4] and write its reported % Change Triglycerides.
-- reply -74%
